Tested on: UO-31
Assay: Growth inhibition of human UO31 cells assessed as cell growth at 10 uM incubated for 48 hrs by sulforhodamine B assay relative to control
Type: functional
Settings: UO-31, 48 h, read-out: Activity
Response key: rule met means growth at 10 µM >= 80%; rule not met means growth at 10 µM < 80%.

{"columns": ["molecule", "label"],
 "data": [
  ["O=C1CC(c2cc3ccccc3[nH]c2=O)Nc2ccccc21 (configuration not stated)", "rule met"],
  ["CCCCOc1nc2c(C)cccc2cc1C1CNC(=O)c2ccccc2N1 (configuration not stated)", "rule not met"],
  ["CCCCn1c(=O)c(C2CNC(=O)c3ccccc3N2)cc2ccc(Cl)cc21 (configuration not stated)", "rule not met"]
]}

Please turn your attention to the following entry.
Hi, just wondering whether O=C1NCC(c2cc3ccc(Cl)cc3[nH]c2=O)Nc2ccccc21 (configuration not stated) shows growth at 10 µM of 80% or higher.
rule met

###

Tested on: ACHN
Test: Growth inhibition of human ACHN cells assessed as cell growth at 10 uM incubated for 48 hrs by sulforhodamine B assay relative to control
Format: functional
Details: read-out: Activity
Below, each entry is listed alongside its reported growth at 10 µM.
Kindly provide the numeric value in % only, without the unit symbol.

Example entries and their recorded answers appear below.
{"columns": ["compound", "growth at 10 µM / %"],
 "data": [
  ["CCCCOc1nc2c(C)cccc2cc1C1CNC(=O)c2ccccc2N1 (configuration not stated)", 66.3],
  ["O=C1CC(c2cc3ccccc3[nH]c2=O)Nc2ccccc21 (configuration not stated)", 99.9],
  ["Cc1ccc2[nH]c(=O)c(C3CNC(=O)c4ccccc4N3)cc2c1 (configuration not stated)", 103],
  ["O=C1NCC(c2cc3ccc(Cl)cc3[nH]c2=O)Nc2ccccc21 (configuration not stated)", 101],
  ["O=C1NCC(c2cc3ccccc3[nH]c2=O)Nc2ccccc21 (configuration not stated)", 99.7]
]}

Give growth at 10 µM; test system ACHN; compound CCCCOc1nc2ccccc2cc1C1CNC(=O)c2ccccc2N1 (configuration not stated)
46.7

Enter recorded growth at 10 µM with ACHN for CCCCOc1nc2ccc(OC)cc2cc1C1CNC(=O)c2ccccc2N1 (configuration not stated) here.
97.3

Tell me its growth at 10 µM on ACHN: O=C1NCC(c2cc3ccc4ccccc4c3[nH]c2=O)Nc2ccccc21 (configuration not stated)
109

Fill in: growth at 10 µM on ACHN, entry CCCCn1c(=O)c(C2CNC(=O)c3ccccc3N2)cc2ccccc21 (configuration not stated)
98.2

Fill in growth at 10 µM for Cc1cccc2cc(C3CNC(=O)c4ccccc4N3)c(=O)[nH]c12 (configuration not stated) tested with ACHN.
98.6

Enter recorded growth at 10 µM with ACHN for O=C1CC(c2cc3ccc4ccccc4c3[nH]c2=O)Nc2ccccc21 (configuration not stated) here.
106

Write growth at 10 µM of CCCCn1c(=O)c(C2CNC(=O)c3ccccc3N2)cc2ccc(Cl)cc21 (configuration not stated) ; system used: ACHN
95.4

###

Let's look at some molecules and their measured growth at 10 µM.
Test system: OVCAR-3
Assay: Growth inhibition of human OVCAR3 cells assessed as cell growth at 10 uM incubated for 48 hrs by sulforhodamine B assay relative to control
Type: functional
Conditions: OVCAR-3, 48 h, read-out: Activity
Numeric answer only, unit % assumed.

{"columns": ["molecule", "unit_annotation", "growth at 10 µM"],
 "data": [
  ["CCCCOc1nc2c(C)cccc2cc1C1CNC(=O)c2ccccc2N1 (configuration not stated)", "%", 20]
]}

Turning now to a further record.
Supply recorded growth at 10 µM for O=C1NCC(c2cc3ccc4ccccc4c3[nH]c2=O)Nc2ccccc21 (configuration not stated) here.
107

###

We begin with a simple list: items and their reported growth at 10 µM.
Tested on: MDA-MB-435
Test: Growth inhibition of human MDA-MB-435 cells assessed as cell growth at 10 uM incubated for 48 hrs by sulforhodamine B assay relative to control
Assay type: functional
Details: MDA-MB-435, 48 h, read-out: Activity
Just the number please, in %, no unit attached.

{"columns": ["compound", "system", "growth at 10 µM (%)"],
 "data": [
  ["O=C1NCC(c2cc3ccc(Cl)cc3[nH]c2=O)Nc2ccccc21 (configuration not stated)", "MDA-MB-435", 104],
  ["Cc1ccc2[nH]c(=O)c(C3CNC(=O)c4ccccc4N3)cc2c1 (configuration not stated)", "MDA-MB-435", 108],
  ["Cc1cccc2cc(C3CNC(=O)c4ccccc4N3)c(=O)[nH]c12 (configuration not stated)", "MDA-MB-435", 106],
  ["O=C1CC(c2cc3ccc4ccccc4c3[nH]c2=O)Nc2ccccc21 (configuration not stated)", "MDA-MB-435", 109]
]}

For CCCCOc1nc2c(C)cccc2cc1C1CNC(=O)c2ccccc2N1 (configuration not stated) , write its growth at 10 µM.
4.51

Annotate the compound CCCCOc1nc2ccc(OC)cc2cc1C1CNC(=O)c2ccccc2N1 (configuration not stated) with its measured growth at 10 µM.
104

Look up and state reported growth at 10 µM for CCCCOc1nc2ccccc2cc1C1CNC(=O)c2ccccc2N1 (configuration not stated)
-63.8

Fill in reported growth at 10 µM for this entry: O=C1CC(c2cc3ccccc3[nH]c2=O)Nc2ccccc21 (configuration not stated)
108

###

System: SNB-19
Experiment: Growth inhibition of human SNB19 cells assessed as cell growth at 10 uM incubated for 48 hrs by sulforhodamine B assay relative to control
Assay type: functional
Settings: SNB-19, 48 h, read-out: Activity
metric: growth at 10 µM (%)
Expressed in %, but write only the number.

Some entries whose results are on file:
{"columns": ["compound", "system", "growth at 10 µM / %"],
 "data": [
  ["CCCCn1c(=O)c(C2CNC(=O)c3ccccc3N2)cc2ccccc21 (stereo unspecified)", "SNB-19", 91],
  ["O=C1CC(c2cc3ccccc3[nH]c2=O)Nc2ccccc21 (stereo unspecified)", "SNB-19", 99.4],
  ["CCCCOc1nc2ccc(OC)cc2cc1C1CNC(=O)c2ccccc2N1 (stereo unspecified)", "SNB-19", 105]
]}

Check the records and state growth at 10 µM for O=C1NCC(c2cc3ccccc3[nH]c2=O)Nc2ccccc21 (stereo unspecified)
102

Kindly indicate its recorded growth at 10 µM. Item: Cc1cccc2cc(C3CNC(=O)c4ccccc4N3)c(=O)[nH]c12 (stereo unspecified)
114

Give recorded growth at 10 µM. Cc1ccc2[nH]c(=O)c(C3CNC(=O)c4ccccc4N3)cc2c1 (stereo unspecified)
99.3

###

Tested on: SK-OV-3
Test: Growth inhibition of human SKOV3 cells assessed as cell growth at 10 uM incubated for 48 hrs by sulforhodamine B assay relative to control
Type: functional
Conditions: SK-OV-3, 48 h, read-out: Activity
metric: growth at 10 µM (%)
Give the quantity in %, number only.

Example results:
{"columns": ["compound", "growth at 10 µM [%]"],
 "data": [
  ["O=C1NCC(c2cc3ccccc3[nH]c2=O)Nc2ccccc21 (configuration not stated)", 89.9],
  ["O=C1CC(c2cc3ccc4ccccc4c3[nH]c2=O)Nc2ccccc21 (configuration not stated)", 98.8],
  ["O=C1CC(c2cc3ccccc3[nH]c2=O)Nc2ccccc21 (configuration not stated)", 99.4],
  ["Cc1ccc2[nH]c(=O)c(C3CNC(=O)c4ccccc4N3)cc2c1 (configuration not stated)", 110],
  ["CCCCn1c(=O)c(C2CNC(=O)c3ccccc3N2)cc2ccccc21 (configuration not stated)", 97.2]
]}

For the compound CCCCOc1nc2ccccc2cc1C1CNC(=O)c2ccccc2N1 (configuration not stated) , give its reported growth at 10 µM.
14.8

Read off the recorded growth at 10 µM for CCCCOc1nc2c(C)cccc2cc1C1CNC(=O)c2ccccc2N1 (configuration not stated)
69.2

Return reported growth at 10 µM. Input compound: CCCCOc1nc2ccc(OC)cc2cc1C1CNC(=O)c2ccccc2N1 (configuration not stated)
89.3

###

System: UACC-62
Test: Growth inhibition of human UACC62 cells assessed as cell growth at 10 uM incubated for 48 hrs by sulforhodamine B assay relative to control
Assay type: functional
Settings: UACC-62, 48 h, read-out: Activity
metric: growth at 10 µM (%)
Return type: number; implicit unit %.

Worked examples, 5 compounds total:
{"columns": ["compound", "system", "growth at 10 µM [%]"],
 "data": [
  ["O=C1CC(c2cc3ccc4ccccc4c3[nH]c2=O)Nc2ccccc21 (configuration not stated)", "UACC-62", 101],
  ["CCCCOc1nc2ccccc2cc1C1CNC(=O)c2ccccc2N1 (configuration not stated)", "UACC-62", 32.6],
  ["O=C1NCC(c2cc3ccc4ccccc4c3[nH]c2=O)Nc2ccccc21 (configuration not stated)", "UACC-62", 95.2],
  ["Cc1ccc2[nH]c(=O)c(C3CNC(=O)c4ccccc4N3)cc2c1 (configuration not stated)", "UACC-62", 98.4],
  ["CCCCOc1nc2c(C)cccc2cc1C1CNC(=O)c2ccccc2N1 (configuration not stated)", "UACC-62", 29.1]
]}

Quote growth at 10 µM reported for Cc1cccc2cc(C3CNC(=O)c4ccccc4N3)c(=O)[nH]c12 (configuration not stated) please.
106

Give reported growth at 10 µM value for O=C1CC(c2cc3ccccc3[nH]c2=O)Nc2ccccc21 (configuration not stated)
96.3

Quick one: give measured growth at 10 µM for O=C1NCC(c2cc3ccc(Cl)cc3[nH]c2=O)Nc2ccccc21 (configuration not stated)
106

Quickly give me recorded growth at 10 µM for CCCCOc1nc2ccc(OC)cc2cc1C1CNC(=O)c2ccccc2N1 (configuration not stated)
76.2

Please give measured growth at 10 µM of the following entry: O=C1NCC(c2cc3ccccc3[nH]c2=O)Nc2ccccc21 (configuration not stated)
98.3

Identify measured growth at 10 µM corresponding to CCCCn1c(=O)c(C2CNC(=O)c3ccccc3N2)cc2ccc(Cl)cc21 (configuration not stated)
80.1

Note growth at 10 µM for the compound shown: CCCCn1c(=O)c(C2CNC(=O)c3ccccc3N2)cc2ccccc21 (configuration not stated)
88.4

Where do the numbers come from? From ChEMBL document CHEMBL4138146.
